Hey, just so you know, these numbers are from PubChem BioAssay (NCI).

tested on: OVCAR-5 ovarian; test: NCI tumour cell line growth inhibition, 48 h
Below, each of the molecules is paired with its reported TGI value.

- Molecule: "CCCCN1C(=O)CC2[C@@H]3CCc4cc(OC)ccc4C3CC[C@]2(C)C1=O (some centres undefined)"
  TGI: "> 10 µM"
- Molecule: "Cc1cc(OCc2nnc3sc(NC(=O)c4ccccc4)nn23)ccc1Cl"
  TGI: "> 100 µM"
- Molecule: "C[n+]1c(-c2ccc(NC(=O)c3ccc(C(=O)Nc4ccc(-c5cn6ccccc6[n+]5C)cc4)cc3)cc2)cn2ccccc21"
  TGI: "> 100 µM"
- Molecule: "CCCO/N=[N+](\\[O-])N(CC)CC"
  TGI: "> 100 µM"
- Molecule: "C=C(C)C1CC2C(C)=C(OC(C)=O)C1n1c(=O)c3cc4ccccc4cc3c(=O)n12 (centres undefined)"
  TGI: "> 100 µM"
- Molecule: "Cc1cc2c(C(C)C)c(O)c(O)c(C=Nc3cc(C(F)(F)F)ccc3Cl)c2c(O)c1-c1c(C)cc2c(C(C)C)c(O)c(O)c(C=Nc3cc(C(F)(F)F)ccc3Cl)c2c1O"
  TGI: "> 100 µM"
- Molecule: "O=C(OC12CC3CC(CC(C3)C1)C2)c1ccc(NCc2cc(O)ccc2O)cc1"
  TGI: "4.59 µM"
- Molecule: "O=c1nc(-c2ccccc2)c2c3c(cccn13)CCC2"
  TGI: "> 100 µM"
- Molecule: "O=c1[nH]c(=O)n(C2CC(O)C(CO)O2)cc1OC/C=C/Cc1ccccc1 (centres undefined)"
  TGI: "> 100 µM"
- Molecule: "N#C/C(=C\\c1cccc(Br)c1)c1nc2ccccc2c(=O)[nH]1"
  TGI: "> 100 µM"
- Molecule: "NCCCCNCCCNC(=O)CNC(=O)CC(O)C(N)CCCC(NC(=O)C(CN)NC(=O)C(O)CNC(=O)CC(N)c1ccc(O)cc1)C(=O)O (centres undefined)"
  TGI: "> 10 µM"
- Molecule: "CCOc1snc(C(Cl)(Cl)Cl)c1Cl"
  TGI: "> 100 µM"
- Molecule: "Cc1ccc2c(c1C)CC1(Cc3c(C)ccc(C)c3C1=O)C2=O (centres undefined)"
  TGI: "> 100 µM"
- Molecule: "CCOC(=O)/C=C(/C=C\\COC1CCCCO1)c1ccccc1 (centres undefined)"
  TGI: "> 100 µM"
- Molecule: "CC(C)c1ccc2nc3ccc(C(=O)NCCN(C)C)cn3c(=O)c2c1"
  TGI: "33.2 µM"
- Molecule: "COc1ccc(C2SC(N)=Nc3c2c(C)nn3C(=O)c2ccc(Cl)cc2)cc1OC (centres undefined)"
  TGI: "> 10 µM"
- Molecule: "Clc1ccc(OCc2nnc(COc3ccc(OCc4nnc(COc5ccc(Cl)cc5Cl)o4)c(Cl)c3)o2)c(Cl)c1"
  TGI: "> 100 µM"
- Molecule: "COc1cc2[nH]c(=O)c3cc(-c4ccccc4)cc4c(Cl)nc(c1OC)c2c43"
  TGI: "> 100 µM"
- Molecule: "CCN(c1ccc(CO)c(Cl)c1)C(C)c1ccc(F)cc1 (centres undefined)"
  TGI: "11.9 µM"
- Molecule: "S=C(N/N=C/c1cc(Cl)cc(Cl)c1)NC12CC3CC(CC(C3)C1)C2"
  TGI: "> 100 µM"
- Molecule: "N/C(=N\\OC(=O)c1ccccc1)C(C(=O)NOC(=O)c1ccccc1)C1CCCCC1 (centres undefined)"
  TGI: "28.2 µM"
- Molecule: "CCCCCCCCCCCCNC(=O)CCC(NC(=O)c1ccc(N(C)Cc2cnc3nc(N)nc(N)c3n2)cc1)C(=O)NCCCCCCCCCCCC (centres undefined)"
  TGI: "> 100 µM"
- Molecule: "COc1cc(OC)cc(Oc2nc3cc(F)c(F)cc3nc2-c2ccccc2)c1"
  TGI: "> 100 µM"
- Molecule: "C[C@]12CC[C@@H]3c4ccc(O)c([N+](=O)[O-])c4CC[C@H]3[C@@H]1CC[C@@H]2NS(=O)(=O)c1ccc(C(F)(F)F)cc1"
  TGI: "3.72 µM"
- Molecule: "COc1ccc(C2=C(Cl)C(=O)O/C2=C\\c2ccc(OC)c(Br)c2)cc1Cl"
  TGI: "> 100 µM"
- Molecule: "CCOC(=O)c1c(NC(=O)c2ccc(C(C)C)cc2)sc2c(CN(C)C)c(O)ccc12"
  TGI: "9.49 µM"
- Molecule: "O=C1CS/C(=N/N=C/c2cn(Cc3ccc(Cl)cc3Cl)c3ccccc23)N1"
  TGI: "> 100 µM"
- Molecule: "CCC1(Br)C(=O)NC(=O)N(C2CC(O)C(CO)O2)C1N=[N+]=[N-] (centres undefined)"
  TGI: "> 100 µM"
- Molecule: "N#Cc1nc(CCCN2C(=O)c3ccccc3C2=O)oc1N"
  TGI: "> 100 µM"
- Molecule: "O=C1N/N=C\\c2ccc(cc2)OCc2cccc(n2)COc2ccc(cc2)/C=N\\NC1=O"
  TGI: "> 25 µM"
- Molecule: "Cc1cc(C)c2c(c1)CN1CN2Cc2cc(C)cc(C)c21"
  TGI: "> 100 µM"
- Molecule: "Cc1cc(S(=O)(=O)Nc2n[nH]c(Nc3ccccc3)n2)c(SCC(=O)O)cc1Cl"
  TGI: "> 100 µM"
- Molecule: "CSc1ccc(C2=Nn3c(nnc3-c3ccc(F)c(Cl)c3)SC2)cc1"
  TGI: "> 100 µM"
- Molecule: "COc1ccc(OC)c(-c2cc(-c3ccccc3)nn2-c2ccc(S(=O)(=O)NC(C)=O)cc2)c1"
  TGI: "31.3 µM"
- Molecule: "Cc1cccc(NC(=O)c2sc3nc4c(cc3c2N)CCCC4)c1C"
  TGI: "> 100 µM"
- Molecule: "COc1ccc2c(c1)-c1c(c3cc(OC)ccc3n1CCN(C)C)CC2"
  TGI: "29.9 µM"
- Molecule: "CN(C)c1ccc(/C=c2/c3ccccc3n3c2cc(-c2ccccc2)[n+]3C)cc1"
  TGI: "2.19 µM"
- Molecule: "O=P1(C(O)/C=C/c2ccccc2)N(Cc2ccccc2)[C@@H]2CCCC[C@H]2N1Cc1ccccc1 (some centres undefined)"
  TGI: "31.5 µM"
- Molecule: "O=[N+]([O-])/C(Cl)=C(/C(Cl)=C(Cl)Cl)N1CCCCC1"
  TGI: "29.2 µM"
